Reference source for all entries: ChEMBL document CHEMBL2375276

- System: Staphylococcus aureus
- measurement-protocol: Antibacterial activity against linezolid-resistant Staphylococcus aureus NRS271 assessed as growth inhibition by CLSI broth microdilution method
- Format: functional
quantity-kind: MIC (µg/mL)
Quick reminder: number only, in µg/mL, skip the unit.

Below are worked cases with known answers.
- compound: "CC(=S)NC[C@H]1CN(c2cc(F)c(N3CCNOCC3)c(F)c2)C(=O)O1"
  unit-label: "µg/mL"
  value: 4
- compound: "O=C1O[C@@H](Cn2ccnn2)CN1c1cc(F)c(N2CCNOCC2)c(F)c1"
  unit-label: "µg/mL"
  value: 16
- compound: "O=C(CO)N1CCN(c2ccc(N3C[C@H](CNc4ccon4)OC3=O)cc2F)CCN1"
  unit-label: "µg/mL"
  value: 64
- compound: "CC(=O)NC[C@H]1CN(c2ccc(N3CCOCC3)c(F)c2)C(=O)O1 [LINEZOLID]"
  unit-label: "µg/mL"
  value: 32

Enquiry: Entry `CC(=O)NC[C@H]1CN(c2cc(F)c(N3CCNN(C(=O)CO)CC3)c(F)c2)C(=O)O1` : reported MIC = ?
Return: 16
